- assayRemarks: Oleyl alcohol-water partition coefficient, Rm of the compound measured at 0% methanol by reverse-phase thin layer chromatography
- Type: physicochemical
Would you mind telling me the reported Rm of each entry?
Please reply with the number alone, leaving off any unit.

Challenge: Entry under review: CN1CCN(CCCN2c3ccccc3Sc3ccc(Cl)cc32)CC1 [PROCHLORPERAZINE] . Reported Rm?
Response given: 3.38

Challenge: What do you get for CN1CCCCC1CCN1c2ccccc2Sc2ccc([S+](C)[O-])cc21 (stereo not given) [MESORIDAZINE] ?
Response given: 2.32

Challenge: What do you get for CSc1ccc2c(c1)N(CCC1CCCCN1C)c1ccccc1S2 (stereo not given) [THIORIDAZINE] ?
Response given: 4.51

Challenge: What do you get for CN1CCN(CCCN2c3ccccc3Sc3ccccc32)CC1 [PERAZINE] ?
Response given: 2.67

Challenge: What do you get for CN(C)CCCN1c2ccccc2Sc2ccccc21 [PROMAZINE] ?
Response given: 3.43

----------
Would you mind telling me the reported Rm of each entry?
- assayRemarks: Oleyl alcohol-water partition coefficient, Rm of the compound measured at 0% methanol by reverse-phase thin layer chromatography
- Assay type: physicochemical
Please reply with the number alone, leaving off any unit.

Challenge: Entry under review: CC(CN1CCN(CCOCCO)CC1)CN1c2ccccc2Sc2ccccc21 (stereo not given) . Reported Rm?
Response given: 2.49

Challenge: What do you get for CN(C)CCCN1c2ccccc2Sc2ccc(Cl)cc21 ?
Response given: 4.12

Challenge: What do you get for OCCN1CCN(CCCN2c3ccccc3Sc3ccc(Cl)cc32)CC1 ?
Response given: 2.74

Challenge: What do you get for OCCN1CCN(CCCN2c3ccccc3Sc3ccc(C(F)(F)F)cc32)CC1 ?
Response given: 3.03

Challenge: What do you get for CN(C)CCCN1c2ccccc2Sc2ccc(C#N)cc21 ?
Response given: 2.94

Challenge: What do you get for COc1ccc2c(c1)N(CCCN(C)C)c1ccccc1S2 ?
Response given: 3.19

Challenge: What do you get for CCCC(=O)c1ccc2c(c1)N(CCCN1CCN(C)CC1)c1ccccc1S2 ?
Response given: 3.37

Challenge: What do you get for N#Cc1ccc2c(c1)N(CCCN1CCC(O)CC1)c1ccccc1S2 ?
Response given: 2.17

Challenge: What do you get for CN(C)CCCN1c2ccccc2Sc2ccc(C(F)(F)F)cc21 ?
Response given: 4.24

Challenge: What do you get for CN1CCN(CCCN2c3ccccc3Sc3ccc(C(F)(F)F)cc32)CC1 ?
Response given: 3.55

----------
- assayRemarks: Octanol-water partition coefficient, log P of the compound
- Format: physicochemical
With a cut-off of 4, any logP strictly below it is called y; any logP meeting it or above is called n.

Challenge: Decide: logP of CN1CCN(CCCN2c3ccccc3Sc3ccccc32)CC1 strictly below 4?
Response given: y

Challenge: What do you get for CN(C)CCCN1c2ccccc2Sc2ccccc21 ?
Response given: n

Challenge: What do you get for COc1ccc2c(c1)N(CCCN(C)C)c1ccccc1S2 ?
Response given: n

Challenge: What do you get for OCCN1CCN(CCCN2c3ccccc3Sc3ccc(C(F)(F)F)cc32)CC1 ?
Response given: n

----------
- experimentalTarget: Albumin (Bos taurus, UniProt P02769)
- Sequence (P02769 whole entry): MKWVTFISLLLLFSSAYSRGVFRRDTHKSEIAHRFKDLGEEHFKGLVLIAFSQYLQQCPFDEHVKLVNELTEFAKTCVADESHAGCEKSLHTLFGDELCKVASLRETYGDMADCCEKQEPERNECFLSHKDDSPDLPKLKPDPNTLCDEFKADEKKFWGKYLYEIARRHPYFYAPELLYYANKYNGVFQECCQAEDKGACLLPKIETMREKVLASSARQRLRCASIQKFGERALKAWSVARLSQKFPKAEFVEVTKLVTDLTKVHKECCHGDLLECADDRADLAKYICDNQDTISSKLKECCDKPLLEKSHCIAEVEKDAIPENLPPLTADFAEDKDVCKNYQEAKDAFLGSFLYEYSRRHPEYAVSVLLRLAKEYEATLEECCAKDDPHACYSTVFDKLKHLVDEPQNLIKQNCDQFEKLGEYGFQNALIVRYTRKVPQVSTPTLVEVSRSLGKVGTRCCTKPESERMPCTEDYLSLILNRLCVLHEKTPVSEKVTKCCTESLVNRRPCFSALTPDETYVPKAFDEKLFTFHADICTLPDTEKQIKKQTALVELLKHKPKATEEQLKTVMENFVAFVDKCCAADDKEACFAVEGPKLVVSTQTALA
- assayRemarks: Binding affinity to bovine serum albumin by circular dichroic probe technique
- Format: ADME
- conditionNotes: cattle, isolated protein
Label condition met when logKa >= 5; otherwise condition not met.

Challenge: Hi, just wondering whether CN1CCN(CCCN2c3ccccc3Sc3ccc(C(F)(F)F)cc32)CC1 [TRIFLUOPERAZINE] shows logKa of 5 or higher.
Response given: condition not met

Challenge: What do you get for CN1CCN(CCCN2c3ccccc3Sc3ccccc32)CC1 [PERAZINE] ?
Response given: condition not met

Challenge: What do you get for CC(CN1CCN(CCOCCO)CC1)CN1c2ccccc2Sc2ccccc21 (stereo not drawn) [DIXYRAZINE] ?
Response given: condition not met

Challenge: What do you get for CN(C)CCCN1c2ccccc2Sc2ccccc21 [PROMAZINE] ?
Response given: condition not met

Challenge: What do you get for COc1ccc2c(c1)N(CCCN(C)C)c1ccccc1S2 [METHOXYPROMAZINE] ?
Response given: condition not met

Challenge: What do you get for OCCN1CCN(CCCN2c3ccccc3Sc3ccc(Cl)cc32)CC1 [PERPHENAZINE] ?
Response given: condition not met

Challenge: What do you get for CCCC(=O)c1ccc2c(c1)N(CCCN1CCN(C)CC1)c1ccccc1S2 [BUTAPERAZINE] ?
Response given: condition not met

Challenge: What do you get for N#Cc1ccc2c(c1)N(CCCN1CCC(O)CC1)c1ccccc1S2 [PERICIAZINE] ?
Response given: condition not met

Challenge: What do you get for CSc1ccc2c(c1)N(CCC1CCCCN1C)c1ccccc1S2 (stereo not drawn) [THIORIDAZINE] ?
Response given: condition met

Challenge: What do you get for CN1CCN(CCCN2c3ccccc3Sc3ccc(Cl)cc32)CC1 [PROCHLORPERAZINE] ?
Response given: condition not met

Challenge: What do you get for CN(C)CCCN1c2ccccc2Sc2ccc(C#N)cc21 ?
Response given: condition not met

Challenge: What do you get for CN(C)CCCN1c2ccccc2Sc2ccc(C(F)(F)F)cc21 [TRIFLUPROMAZINE] ?
Response given: condition met
